Test: Pharmacokinetics in rats
Type: in vivo, SD rats
Conditions: both sexes, SD, 3 mg/kg; Rat PK (IV, 3 mpk), single injection, plasma, Formulation A
parameter.measured: AUC(0-inf) (ng·h/mL)
Output spec: scalar in ng·h/mL, unitless text.

# input Query: AUC(0-inf); subject: CC[C@@]1(O)C(=O)OCc2c1cc1n(c2=O)Cc2c-1nc1cc(F)c(C)c3c1c2[C@@H](NC(=O)CO)CC3 [Dxd]
# output 352

====

Test: Pharmacokinetics in mice
Format: in vivo, Balb/c mice
Conditions: in vivo, 3 mg/kg; Mouse PK (IV, 3 mpk), single injection, plasma, Formulation A (5% DMSO + 95% (15% sulfobutyl-β-cyclodextrin-normal saline))
parameter.measured: half-life (min)
Output spec: scalar in min, unitless text.

# input Query: half-life; subject: [2H]C1([2H])OC(=O)[C@](O)(CC)c2cc3n(c(=O)c21)Cc1c-3nc2cc(F)c(C)c3c2c1[C@@H](NC(=O)CO)CC3
# output 27.3

====

Tested on: MDA-MB-453 (human breast cancer cells)
Assay: In vitro antitumor activity (cell proliferation inhibition, CellTiter-Glo)
Type: cell-based
Settings: MDA-MB-453 cells, 48 hours of incubation
For each of the compounds below, state its pIC50.
Scale for pIC50: -log10 of concentration given in mol/L; no unit attached.

# input Query: pIC50; subject: [2H]C1([2H])OC(=O)[C@](O)(CC)c2cc3n(c(=O)c21)Cc1c-3nc2cc(F)c(C)c3c2c1[C@@H](NC(=O)[C@@H](O)C1CC1)CC3
# output 7.26

# input Query: pIC50; subject: [2H]C1([2H])OC(=O)[C@](O)(CC)c2cc3n(c(=O)c21)Cc1c-3nc2cc(F)c(C)c3c2c1[C@@H](NC(=O)[C@H](O)C1CC1)CC3
# output 7.40

# input Query: pIC50; subject: [2H]C1([2H])OC(=O)[C@](O)(CC)c2cc3n(c(=O)c21)Cc1c-3nc2cc(F)c(C)c3c2c1[C@@H](NC(=O)CO)CC3
# output 6.94

# input Query: pIC50; subject: [2H]C1([2H])OC(=O)[C@](O)(CC)c2cc3n(c(=O)c21)Cc1c-3nc2cc(F)c(C)c3c2c1[C@@H](NC(=O)C[C@H](C)O)CC3
# output 6.92

# input Query: pIC50; subject: [2H]C1([2H])OC(=O)[C@](O)(CC)c2cc3n(c(=O)c21)Cc1c-3nc2cc(F)c(C)c3c2c1[C@@H](NC(=O)C[C@@H](C)O)CC3
# output 7.02

====

Assay: Pharmacokinetics in rats
Format: in vivo, SD rats
Conditions: in vivo, 3 mg/kg; Rat PK (IV, 3 mpk), single injection, plasma, Formulation A
parameter.measured: Cmax

# input Query: Cmax; subject: [2H]C1([2H])OC(=O)[C@](O)(CC)c2cc3n(c(=O)c21)Cc1c-3nc2cc(F)c(C)c3c2c1[C@@H](NC(=O)CO)CC3
# output 406 ng/mL

====

Assay: Pharmacokinetics in rats
Type: in vivo, SD rats
Details: both sexes, SD, 3 mg/kg; Rat PK (IV, 3 mpk), single injection, plasma, Formulation A
parameter.measured: Cmax

# input Query: Cmax; subject: CC[C@@]1(O)C(=O)OCc2c1cc1n(c2=O)Cc2c-1nc1cc(F)c(C)c3c1c2[C@@H](NC(=O)CO)CC3
# output 0.621 µg/mL

====

Experiment: Pharmacokinetics in mice
Type: in vivo, Balb/c mice
Settings: in vivo, 3 mg/kg; Mouse PK (IV, 3 mpk), single injection, plasma, Formulation B (5% DMSO-10% Solutol HS 15-85% normal saline)
For each of the compounds below, state its Cmax.
Output spec: scalar in ng/mL, unitless text.

# input Query: Cmax; subject: [2H]C1([2H])OC(=O)[C@](O)(CC)c2cc3n(c(=O)c21)Cc1c-3nc2cc(F)c(C)c3c2c1[C@@H](NC(=O)[C@H](O)C1CC1)CC3
# output 4300

# input Query: Cmax; subject: [2H]C1([2H])OC(=O)[C@](O)(CC)c2cc3n(c(=O)c21)Cc1c-3nc2cc(F)c(C)c3c2c1[C@@H](NC(=O)C[C@H](C)O)CC3
# output 2580

# input Query: Cmax; subject: [2H]C1([2H])OC(=O)[C@](O)(CC)c2cc3n(c(=O)c21)Cc1c-3nc2cc(F)c(C)c3c2c1[C@@H](NC(=O)C[C@@H](C)O)CC3
# output 3520

====

Experiment: Pharmacokinetics in mice
Format: in vivo, Balb/c mice
Conditions: in vivo, 3 mg/kg; Mouse PK (IV, 3 mpk), single injection, plasma, Formulation B (5% DMSO-10% Solutol HS 15-85% normal saline)
parameter.measured: half-life

# input Query: half-life; subject: [2H]C1([2H])OC(=O)[C@](O)(CC)c2cc3n(c(=O)c21)Cc1c-3nc2cc(F)c(C)c3c2c1[C@@H](NC(=O)C[C@H](C)O)CC3 [Compound 6]
# output 40.7 min

# input Query: half-life; subject: [2H]C1([2H])OC(=O)[C@](O)(CC)c2cc3n(c(=O)c21)Cc1c-3nc2cc(F)c(C)c3c2c1[C@@H](NC(=O)C[C@@H](C)O)CC3 [Compound 5]
# output 40.4 min

# input Query: half-life; subject: [2H]C1([2H])OC(=O)[C@](O)(CC)c2cc3n(c(=O)c21)Cc1c-3nc2cc(F)c(C)c3c2c1[C@@H](NC(=O)[C@H](O)C1CC1)CC3 [Compound 3]
# output 36.4 min

====

Assay: Pharmacokinetics in mice
Format: in vivo, Balb/c mice
Conditions: both sexes, Balb/c, 3 mg/kg; Mouse PK (IV, 3 mpk), single injection, plasma, Formulation A (5% DMSO + 95% (15% sulfobutyl-β-cyclodextrin-normal saline))
parameter.measured: half-life (h)
Output spec: scalar in h, unitless text.

# input Query: half-life; subject: CC[C@@]1(O)C(=O)OCc2c1cc1n(c2=O)Cc2c-1nc1cc(F)c(C)c3c1c2[C@@H](NC(=O)CO)CC3
# output 1.17

====

Tested on: Calu-3 (human lung adenocarcinoma cells)
Assay: In vitro antitumor activity (cell proliferation inhibition, CellTiter-Glo)
Assay type: cell-based
Conditions: Calu-3 cells, 48 hours of incubation
parameter.measured: pIC50
Scale for pIC50: -log10 of concentration given in mol/L; no unit attached.

# input Query: pIC50; subject: [2H]C1([2H])OC(=O)[C@](O)(CC)c2cc3n(c(=O)c21)Cc1c-3nc2cc(F)c(C)c3c2c1[C@@H](NC(=O)[C@H](O)C1CC1)CC3
# output 7.77

# input Query: pIC50; subject: [2H]C1([2H])OC(=O)[C@](O)(CC)c2cc3n(c(=O)c21)Cc1c-3nc2cc(F)c(C)c3c2c1[C@@H](NC(=O)[C@@H](O)C1CC1)CC3
# output 7.71

# input Query: pIC50; subject: [2H]C1([2H])OC(=O)[C@](O)(CC)c2cc3n(c(=O)c21)Cc1c-3nc2cc(F)c(C)c3c2c1[C@@H](NC(=O)C[C@@H](C)O)CC3
# output 7.48

# input Query: pIC50; subject: [2H]C1([2H])OC(=O)[C@](O)(CC)c2cc3n(c(=O)c21)Cc1c-3nc2cc(F)c(C)c3c2c1[C@@H](NC(=O)C[C@H](C)O)CC3
# output 7.33

# input Query: pIC50; subject: [2H]C1([2H])OC(=O)[C@](O)(CC)c2cc3n(c(=O)c21)Cc1c-3nc2cc(F)c(C)c3c2c1[C@@H](NC(=O)CO)CC3
# output 7.57

Data origin, for the record: patent EP4711370A1
